molecular target: human CB2 receptor (Homo sapiens, UniProt P34972); construct: expressed in transfected cells; host or cells: human embryonic kidney (HEK) cells, Semliki Forest Virus system, membrane preparations; assay: CB2 receptor affinity, [3H]-CP-55,940 displacement, HEK cell membranes; format: binding; details: 10 μM compound, radioligand [3H]-CP-55,940
Sequence (P34972 whole entry): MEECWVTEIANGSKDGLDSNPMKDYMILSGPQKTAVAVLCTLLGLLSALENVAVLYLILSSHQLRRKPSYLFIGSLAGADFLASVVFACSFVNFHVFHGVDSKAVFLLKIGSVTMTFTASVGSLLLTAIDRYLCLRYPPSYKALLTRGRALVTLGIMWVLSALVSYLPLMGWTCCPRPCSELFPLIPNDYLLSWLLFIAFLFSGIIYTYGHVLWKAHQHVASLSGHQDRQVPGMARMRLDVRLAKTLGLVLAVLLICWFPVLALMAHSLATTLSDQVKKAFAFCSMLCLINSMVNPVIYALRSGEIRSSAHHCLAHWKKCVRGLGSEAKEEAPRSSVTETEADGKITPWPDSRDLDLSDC
Class true (1): inhibition at 10 µM at least 20%. Class false (0): inhibition at 10 µM below 20%.

Dear colleague, could you confirm whether `O=C(NCc1nc(C(F)(F)F)no1)c1ncc(OCC2CC2)c(-c2ccc(Cl)cc2)n1` has inhibition at 10 µM at or above 20%?
true (1)

Dear colleague, could you confirm whether `O=C(NCc1nc(C(F)(F)F)no1)c1cnc(OCC(F)(F)F)c(-c2ccc(Cl)cc2F)c1` has inhibition at 10 µM at or above 20%?
true (1)

Dear colleague, could you confirm whether `O=C(NCc1nc(C(F)(F)F)no1)c1cnc(OCC(F)(F)F)c(-c2ccc3c(c2)CCC3)c1` has inhibition at 10 µM at or above 20%?
false (0)

Dear colleague, could you confirm whether `COCCOc1ncc(C(=O)NCc2nc(C(F)(F)F)no2)cc1-c1ccc(Cl)c(C)c1` has inhibition at 10 µM at or above 20%?
false (0)

Dear colleague, could you confirm whether `O=C(NCc1nc(C(F)(F)F)no1)c1cnc(OCC2CC2)c(-c2ccc(F)c(F)c2)c1` has inhibition at 10 µM at or above 20%?
true (1)

Dear colleague, could you confirm whether `O=C(NCc1cc(C(F)(F)F)no1)c1ncc(OCC(F)(F)F)c(-c2ccc(Cl)cc2)n1` has inhibition at 10 µM at or above 20%?
false (0)

Dear colleague, could you confirm whether `Cc1ccc(-c2cc(C(=O)NCc3nc(C(F)(F)F)no3)cnc2OCC(F)(F)F)cc1Cl` has inhibition at 10 µM at or above 20%?
false (0)

Dear colleague, could you confirm whether `CC(C)(C)c1nc(CNC(=O)c2cc(-c3ccc(Cl)cc3)c(OCC3CC3)cn2)cs1` has inhibition at 10 µM at or above 20%?
false (0)

----------
tested on: ABCA1 protein; test: Detection of upregulation of ABCA1 protein in THP-1 macrophage cells (ApoA-I binding, high content imaging); format: cell-based; settings: 24 hrs with compound, AlexaFluor 647 ApoA-I binding, read-out: ABCA1 protein increasing efficacy EC50
Measured property: pEC50
Numbers only, as −log10 of the molar value.

Recorded pEC50, per entry:
>>> numeric_readout("COc1cc(CNC(=O)c2cnc(OCC(F)(F)F)c(-c3ccc(F)c(F)c3)c2)on1")
5.90
>>> numeric_readout("O=C(NCc1cc(C(F)(F)F)on1)c1cc(-c2ccc(Cl)cc2)c(OCC(F)(F)F)nn1")
6.11
>>> numeric_readout("O=C(NCc1nc(C(F)(F)F)no1)c1cnc(OCC(F)(F)F)c(-c2ccc3nonc3c2)c1")
6.24
>>> numeric_readout("O=C(NCc1coc(C2CC2)n1)c1cc(-c2ccc(Cl)cc2)c(OCC(F)(F)F)cn1")
5.81
>>> numeric_readout("CC(C)c1cc(CNC(=O)c2cc(-c3ccc(Cl)cc3)c(OCC(F)(F)F)cn2)no1")
6.01

Batch: pEC50 for all items listed.
1. Cc1cc(-c2cc(C(=O)NCc3nc(C(F)(F)F)no3)cnc2OC2CCC2)ccc1Cl
2. CCCc1nc(CNC(=O)c2cnc(OCC3CC3)c(-c3ccc(Cl)cc3)c2)cs1

1. 6.51
2. 5.82

Memo: `COc1cc(CNC(=O)c2cc(-c3ccc(Cl)cc3)c(OCC(F)(F)F)cn2)on1` , reported pEC50: 5.70

----------
Record form. Attribute: inhibition at 10 µM. Fill in for each entry.
target: human CB1 receptor (Homo sapiens); construct: expressed in transfected cells; host or cells: human embryonic kidney (HEK) cells, Semliki Forest Virus system, membrane preparations; assay: CB1 receptor affinity, [3H]-CP-55,940 displacement, HEK cell membranes; format: binding; conditions: 10 μM compound, radioligand [3H]-CP-55,940; read-out: CB1 receptor affinity [% inhibition @ 10 μM]
Sequence (P21554 whole entry): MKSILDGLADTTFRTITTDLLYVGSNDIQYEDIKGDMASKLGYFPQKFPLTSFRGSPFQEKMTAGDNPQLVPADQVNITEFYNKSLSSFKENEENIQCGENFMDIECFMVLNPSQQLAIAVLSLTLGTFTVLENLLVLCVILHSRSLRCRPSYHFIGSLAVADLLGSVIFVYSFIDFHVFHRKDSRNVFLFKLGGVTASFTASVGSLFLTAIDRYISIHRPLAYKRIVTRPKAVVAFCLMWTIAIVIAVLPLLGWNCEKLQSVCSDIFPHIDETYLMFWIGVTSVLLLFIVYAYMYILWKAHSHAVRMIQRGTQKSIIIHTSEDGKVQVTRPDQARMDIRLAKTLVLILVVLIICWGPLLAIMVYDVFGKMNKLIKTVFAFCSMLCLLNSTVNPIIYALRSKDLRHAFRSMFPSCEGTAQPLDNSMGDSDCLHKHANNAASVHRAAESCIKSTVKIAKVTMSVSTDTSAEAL
Numbers only, in %.

Batch: inhibition at 10 µM for all items listed.
1. O=C(NCc1nc(C(F)(F)F)no1)c1cnc(OC[C@H]2CCOC2)c(-c2ccc(Cl)cc2)c1 (stereo in doubt)
2. CC(C)c1cc(CNC(=O)c2cc(-c3ccc(Cl)cc3)c(OCC(F)(F)F)nn2)no1
3. CC(C)c1cc(CNC(=O)c2ccc(OCC(F)(F)F)c(-c3ccc(Cl)cc3)n2)no1
4. CC(C)c1cc(CNC(=O)c2ccc(OCC(F)(F)F)c(-c3ccc(Cl)cc3)n2)on1

39
34
43
33

----------
target: human CB1 receptor (Homo sapiens); construct: expressed in transfected cells; host or cells: human embryonic kidney (HEK) cells, Semliki Forest Virus system, membrane preparations; assay: CB1 receptor affinity, [3H]-CP-55,940 displacement, HEK cell membranes; format: binding; settings: 10 μM compound, radioligand [3H]-CP-55,940; read-out: CB1 receptor affinity [% inhibition @ 10 μM]
Class Criterion met: inhibition at 10 µM at least 30%. Class Criterion not met: inhibition at 10 µM below 30%.

Dear colleague, could you confirm whether O=C(NCc1nc(C(F)(F)F)no1)c1cnc(OC2CCC2)c(-c2ccc(Cl)cc2)c1 [Example 92] has inhibition at 10 µM at or above 30%?
Criterion met

Dear colleague, could you confirm whether O=C(NCc1noc(C2CC2)n1)c1ncc(OCC2CC2)c(-c2ccc(Cl)cc2)n1 [Example 13] has inhibition at 10 µM at or above 30%?
Criterion met

Dear colleague, could you confirm whether O=C(NCc1cc(C(F)(F)F)on1)c1cnc(OCC(F)(F)F)c(-c2ccc(Cl)cc2)c1 [Example 50] has inhibition at 10 µM at or above 30%?
Criterion met

Dear colleague, could you confirm whether O=C(NCc1coc(C2CC2)n1)c1ccc(OCC2CC2)c(-c2ccc(Cl)cc2)n1 [Example 56] has inhibition at 10 µM at or above 30%?
Criterion met

Dear colleague, could you confirm whether O=C(NCc1nc(C(F)(F)F)no1)c1ncc(OCC2CC2)c(-c2ccc(Cl)cc2)n1 [Example 21] has inhibition at 10 µM at or above 30%?
Criterion met

Dear colleague, could you confirm whether O=C(NCc1cc(C2CC2)no1)c1cc(-c2ccc(Cl)cc2)c(OCC(F)(F)F)cn1 [Example 33] has inhibition at 10 µM at or above 30%?
Criterion met

Dear colleague, could you confirm whether CC(C)c1noc(CNC(=O)c2cc(-c3ccc(Cl)cc3)c(OCC(F)(F)F)cn2)n1 [Example 40] has inhibition at 10 µM at or above 30%?
Criterion not met

Dear colleague, could you confirm whether O=C(NCc1nc(C(F)(F)F)no1)c1cnc(OCC(F)(F)F)c(-c2ccc(F)c(Cl)c2)c1 [Example 81] has inhibition at 10 µM at or above 30%?
Criterion not met

Dear colleague, could you confirm whether CCCn1ccc(CNC(=O)c2cc(-c3ccc(Cl)cc3)c(OCC(F)(F)F)cn2)n1 [Example 4] has inhibition at 10 µM at or above 30%?
Criterion not met

Dear colleague, could you confirm whether CCCc1nc(CNC(=O)c2cnc(OCC(F)(F)F)c(-c3ccc(Cl)cc3)c2)cs1 [Example 9] has inhibition at 10 µM at or above 30%?
Criterion not met

Dear colleague, could you confirm whether COc1cc(CNC(=O)c2ncc(OCC(F)(F)F)c(-c3ccc(Cl)c(Cl)c3)n2)on1 [Example 25] has inhibition at 10 µM at or above 30%?
Criterion not met

Dear colleague, could you confirm whether O=C(NCc1nc(C(F)(F)F)no1)c1cnc(OCC(F)(F)F)c(-c2ccc3c(c2)CCC3)c1 [Example 85] has inhibition at 10 µM at or above 30%?
Criterion not met

----------
target: human CB2 receptor (Homo sapiens, UniProt P34972); construct: expressed in transfected cells; host or cells: human embryonic kidney (HEK) cells, Semliki Forest Virus system, membrane preparations; experiment: CB2 receptor affinity, [3H]-CP-55,940 displacement, HEK cell membranes; format: binding; details: 10 μM compound, radioligand [3H]-CP-55,940
Record form. Attribute: inhibition at 10 µM. Fill in for each entry.
One number for each entry, in %.

>>> numeric_readout("O=C(NCc1nc(C(F)(F)F)no1)c1cc(-c2ccc(Cl)cc2)c(OCC2CC2)cn1")
24
>>> numeric_readout("O=C(NCc1nc(C(F)(F)F)no1)c1cnc(OC[C@@H]2CCOC2)c(-c2ccc(Cl)cc2)c1 (stereo in doubt)")
17
>>> numeric_readout("O=C(NCc1noc(C(F)(F)F)n1)c1cnc(OCC(F)(F)F)c(-c2ccc(Cl)cc2)c1")
-4

Now look at this entry.
GET /values?item= `N#Cc1ccc(-c2cc(C(=O)NCc3nc(C(F)(F)F)no3)cnc2OCC(F)(F)F)cc1` &system= human CB2 receptor (Homo sapiens, UniProt P34972) returns inhibition at 10 µM: 3
